test system: NIH 3T3 Non-tumor; assay: Cytotoxicity assay (Cell Titer GLO, 72 hours), NIH3T3; assay type: cell-based; settings: Mus musculus, NIH 3T3 Non-tumor cells, cell viability by Cell Titer GLO, read-out: GC50 (the source's name)
pIC50: −log10 of the molar value.
Would you mind telling me the reported pIC50 of each entry?

Reported pIC50 ( C=CC(=O)NCCSc1cccc(O)c1O [Compound 14] ) = < 4.30

Noted for C=CC(=O)NCCSc1ccc(O)c(O)c1 [Compound 10] : its pIC50 reads < 4.30

The compound listed as C=CC(=O)NCCSc1cc(O)ccc1O [Compound 12] has a reported pIC50 of 5.48

Entry source: patent US20190062272A1
